Ref: patent US20090018118A1

Parameter: activity at 10 µM. Scope: all listed entries.
test system: cholesterol biosynthesis in HepG2 cells; assay: Metabolic labeling of HepG2 cells with [3H]acetate; radio-HPLC sterol profile (inhibition of cholesterol biosynthesis); format: cell-based, human; conditions: Homo sapiens, 24 h; Table I; 10 μM compound, HepG2; sterol level normalized to normal medium (1.00); mean of 4 experiments; read-out: lathosterol
Structures can show the parent of a compound that is named as a salt.
Recorded Metric: activity at 10 µM (%)

Molecule: COc1ccc(CN2CCN(CCc3ccccc3)CC2)cn1 [LK-9106, trihydrobromide]
System Under Test: cholesterol biosynthesis in HepG2 cells
Recorded Metric: activity at 10 µM
Unit Descriptor: %
Assay Result: 31
//
Molecule: Clc1ccc(CCN2CCN(CCc3ccncc3)CC2)cc1Cl [LK-9135, trihydrobromide]
System Under Test: cholesterol biosynthesis in HepG2 cells
Recorded Metric: activity at 10 µM
Unit Descriptor: %
Assay Result: 0
//
Molecule: c1ccc(CCN2CCN(Cc3cccnc3)CC2)cc1 [LK-9108, trihydrobromide]
System Under Test: cholesterol biosynthesis in HepG2 cells
Recorded Metric: activity at 10 µM
Unit Descriptor: %
Assay Result: 74
//
Molecule: c1ccc(CCN2CCN(CCc3cccnc3)CC2)cc1 [LK-9100, trihydrobromide]
System Under Test: cholesterol biosynthesis in HepG2 cells
Recorded Metric: activity at 10 µM
Unit Descriptor: %
Assay Result: 30
//
Molecule: OC(CN1CCN(CCc2ccccc2)CC1)c1ccncc1 (stereo not drawn) [LK-9110B]
System Under Test: cholesterol biosynthesis in HepG2 cells
Recorded Metric: activity at 10 µM
Unit Descriptor: %
Assay Result: 78
//
Molecule: OC(CN1CCN(CCc2ccccc2)CC1)c1cccnc1 (stereo not drawn) [LK-980, trihydrobromide]
System Under Test: cholesterol biosynthesis in HepG2 cells
Recorded Metric: activity at 10 µM
Unit Descriptor: %
Assay Result: 49
//
Molecule: c1ccc(CCN2CCN(CCCc3cccnc3)CC2)cc1 [LK-9140, trihydrobromide]
System Under Test: cholesterol biosynthesis in HepG2 cells
Recorded Metric: activity at 10 µM
Unit Descriptor: %
Assay Result: 3
//
Molecule: O=C(Cc1cccnc1)N1CCN(CCc2ccccc2)CC1 [LK-9101B]
System Under Test: cholesterol biosynthesis in HepG2 cells
Recorded Metric: activity at 10 µM
Unit Descriptor: %
Assay Result: 54
//
Molecule: c1ccc(CCN2CCN(CCc3ccncc3)CC2)cc1 [LK-9118B]
System Under Test: cholesterol biosynthesis in HepG2 cells
Recorded Metric: activity at 10 µM
Unit Descriptor: %
Assay Result: 23

====

tested on: cholesterol biosynthesis in HepG2 cells; experiment: Metabolic labeling of HepG2 cells with [3H]acetate; radio-HPLC sterol profile (inhibition of cholesterol biosynthesis); format: cell-based, human; conditions: Table II (arranged by sterol profile); 10 μM compound, HepG2; normalized to normal medium (1.00)
Structures can show the parent of a compound that is named as a salt.

Molecule: Fc1ccc(CCN2CCN(CCc3ccncc3)CC2)cc1F [LK-9131, trihydrobromide]
lanosterol: 0.69
--
Molecule: Clc1ccc(CCN2CCN(CCc3ccccn3)CC2)cc1Cl [LK-9137, trihydrobromide]
lanosterol: 0.63
--
Molecule: c1ccc(CCN2CCN(Cc3cccnc3)CC2)cc1 [LK-9108, trihydrobromide]
lanosterol: 1.10
--
Molecule: Clc1ccc(CCN2CCN(CCc3ccncc3)CC2)cc1Cl [LK-9135, trihydrobromide]
lanosterol: 0.43
--
Molecule: c1ccc(CCN2CCN(CCc3ccncc3)CC2)cc1 [LK-9118B]
lanosterol: 1.46
--
Molecule: O=C(Cc1cccnc1)N1CCN(CCc2ccccc2)CC1 [LK-9101B]
lanosterol: 0.94
